The origin of these recorded values is paper PMC5529566.

- experimental.target: H^+,K^+-ATPase D137N (Sus scrofa, UniProt P19156, D138N)
- Sequence (P19156 whole entry D138N): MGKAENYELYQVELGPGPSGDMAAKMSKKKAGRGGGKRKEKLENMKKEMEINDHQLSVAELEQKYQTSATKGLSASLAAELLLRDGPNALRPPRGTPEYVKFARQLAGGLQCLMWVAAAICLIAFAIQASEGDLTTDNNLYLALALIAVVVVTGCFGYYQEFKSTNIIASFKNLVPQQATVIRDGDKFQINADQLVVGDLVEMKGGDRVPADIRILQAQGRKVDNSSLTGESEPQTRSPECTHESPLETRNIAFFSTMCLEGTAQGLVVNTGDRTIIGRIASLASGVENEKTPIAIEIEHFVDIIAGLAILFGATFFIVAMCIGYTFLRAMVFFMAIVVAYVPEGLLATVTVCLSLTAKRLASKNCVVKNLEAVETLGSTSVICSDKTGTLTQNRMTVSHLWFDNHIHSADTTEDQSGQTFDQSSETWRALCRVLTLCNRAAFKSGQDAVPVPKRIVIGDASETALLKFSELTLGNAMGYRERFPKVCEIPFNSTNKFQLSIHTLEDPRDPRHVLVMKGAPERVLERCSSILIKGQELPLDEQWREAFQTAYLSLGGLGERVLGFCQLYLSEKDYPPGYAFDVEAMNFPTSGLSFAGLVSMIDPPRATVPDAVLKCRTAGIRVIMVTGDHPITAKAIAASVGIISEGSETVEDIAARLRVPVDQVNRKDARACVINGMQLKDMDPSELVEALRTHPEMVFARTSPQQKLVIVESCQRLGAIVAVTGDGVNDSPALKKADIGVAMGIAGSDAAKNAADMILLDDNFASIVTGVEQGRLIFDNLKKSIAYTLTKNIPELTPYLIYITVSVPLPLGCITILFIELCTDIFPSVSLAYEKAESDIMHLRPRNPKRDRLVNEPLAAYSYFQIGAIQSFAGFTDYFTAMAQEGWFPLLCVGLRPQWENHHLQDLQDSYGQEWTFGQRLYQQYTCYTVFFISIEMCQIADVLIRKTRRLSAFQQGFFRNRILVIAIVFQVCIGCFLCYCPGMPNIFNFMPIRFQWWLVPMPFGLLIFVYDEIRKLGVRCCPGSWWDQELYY
- Sequence (P18434 whole entry partner): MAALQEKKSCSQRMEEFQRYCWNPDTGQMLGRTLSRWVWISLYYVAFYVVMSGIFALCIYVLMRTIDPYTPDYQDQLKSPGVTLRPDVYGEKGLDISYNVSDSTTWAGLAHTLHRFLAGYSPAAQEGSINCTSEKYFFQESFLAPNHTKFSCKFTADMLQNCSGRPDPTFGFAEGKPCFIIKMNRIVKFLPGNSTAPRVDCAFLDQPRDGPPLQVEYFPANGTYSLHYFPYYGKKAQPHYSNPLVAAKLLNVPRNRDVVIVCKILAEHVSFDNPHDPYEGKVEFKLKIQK
- protocol.description: ATPase assay, D137N mutant
readout.type: Ki (µM)

P: Cc1nc2c3c(ccn2c1C)[C@@H](O)[C@H](O)[C@@H](c1ccccc1)N3 [BYK99]
Q: Cc1cn2cccc(OCc3ccccc3)c2n1 [SCH-CN^−]
Q: Returns: the label, P or Q , whose recorded Ki is the lower number. Label of pick, please.
Result: P

###

- experimental.target: H^+,K^+-ATPase Y140F (Sus scrofa, UniProt P19156, Y141F)
- Sequence (P19156 whole entry Y141F): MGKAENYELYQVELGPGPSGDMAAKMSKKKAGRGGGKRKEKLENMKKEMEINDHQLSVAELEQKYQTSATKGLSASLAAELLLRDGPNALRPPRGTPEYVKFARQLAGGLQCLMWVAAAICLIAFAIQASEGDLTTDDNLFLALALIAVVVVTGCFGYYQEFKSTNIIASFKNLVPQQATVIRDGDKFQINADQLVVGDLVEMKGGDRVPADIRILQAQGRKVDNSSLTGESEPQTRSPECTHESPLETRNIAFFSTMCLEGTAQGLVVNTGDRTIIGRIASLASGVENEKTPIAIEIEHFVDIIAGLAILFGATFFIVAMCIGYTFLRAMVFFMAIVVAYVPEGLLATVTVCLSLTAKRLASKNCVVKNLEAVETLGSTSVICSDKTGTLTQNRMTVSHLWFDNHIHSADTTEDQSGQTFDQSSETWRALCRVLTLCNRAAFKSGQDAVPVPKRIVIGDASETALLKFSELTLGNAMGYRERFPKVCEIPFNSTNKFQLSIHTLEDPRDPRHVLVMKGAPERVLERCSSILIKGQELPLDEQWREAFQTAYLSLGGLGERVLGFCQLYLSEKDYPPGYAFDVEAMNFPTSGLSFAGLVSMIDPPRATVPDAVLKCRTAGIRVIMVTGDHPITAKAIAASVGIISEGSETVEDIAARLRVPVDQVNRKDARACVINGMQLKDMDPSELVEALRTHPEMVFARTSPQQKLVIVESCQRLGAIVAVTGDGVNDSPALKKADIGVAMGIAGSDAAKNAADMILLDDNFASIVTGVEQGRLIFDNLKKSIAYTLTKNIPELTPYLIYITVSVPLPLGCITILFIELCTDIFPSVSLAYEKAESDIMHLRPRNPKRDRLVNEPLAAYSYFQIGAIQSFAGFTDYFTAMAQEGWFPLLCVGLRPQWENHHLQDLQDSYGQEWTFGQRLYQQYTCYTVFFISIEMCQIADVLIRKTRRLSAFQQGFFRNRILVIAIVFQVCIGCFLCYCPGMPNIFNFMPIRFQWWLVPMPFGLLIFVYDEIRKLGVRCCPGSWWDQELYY
- Sequence (P18434 whole entry partner): as the sequence (P18434 whole entry partner) above
- protocol.description: ATPase assay, Y140F mutant
- particulars: Y140F
readout.type: -fold increase in K i compared with wild-type (fold)

compound	result.value
Cc1nc2c3c(ccn2c1C)[C@@H](O)[C@H](O)[C@@H](c1ccccc1)N3C	1.6

1: Cc1nc2c3c(ccn2c1C)[C@@H](O)[C@H](O)[C@@H](c1ccccc1)N3
2: Cc1cn2cccc(OCc3ccccc3)c2n1
3: N#CCc1cnc2c(OCc3ccccc3)cccn12
Q: Put the items in order so that reported -fold increase in K i compared with wild-type rises from first to last. Order the labels as requested and give them as your answer.
Result: 2, 3, 1
